Numbers sourced from patent US12285407B2.

Tested on: Escherichia coli
Test: microbe, parasite or virus in culture
Type: cell-based
Settings: antibiotic alone, Table 6, read-out: MIC of antibiotic, No compound
assay-endpoint: MIC

Past entries and their recorded results:
smiles-string: CC1(C)S[C@@H]2[C@H](NC(=O)[C@H](N)c3ccccc3)C(=O)N2[C@H]1C(=O)O
system-under-test: Escherichia coli
result: 63 µg/mL

smiles-string: CC[C@H]1OC(=O)[C@H](C)[C@@H](O[C@H]2C[C@@](C)(OC)[C@@H](O)[C@H](C)O2)[C@H](C)[C@@H](O[C@@H]2O[C@H](C)C[C@H](N(C)C)[C@H]2O)[C@](C)(O)C[C@@H](C)C(=O)[C@H](C)[C@@H](O)[C@]1(C)O
system-under-test: Escherichia coli
result: > 250 µg/mL

smiles-string: C[C@H]1c2cccc(O)c2C(=O)C2=C(O)[C@]3(O)C(=O)C(C(N)=O)=C(O)[C@@H](N(C)C)[C@@H]3[C@@H](O)[C@@H]21
system-under-test: Escherichia coli
result: 63 µg/mL

Below: the item to evaluate.
Query: Request body: readout MIC, system Escherichia coli, query "[H]/N=C(/N)N[C@H]1[C@H](O)[C@@H](O)[C@H](O[C@@H]2O[C@@H](C)[C@](O)(C=O)[C@H]2O[C@@H]2O[C@@H](CO)[C@H](O)[C@@H](O)[C@@H]2NC)[C@@H](N/C(N)=N\[H])[C@@H]1O" . Return the value.
Reply: 8 µg/mL

###

Would you mind telling me the reported MIC of each entry?
Test system: Enterococcus faecium ATCC 19434
Assay: Broth microdilution MIC of SP-BIMs
Assay type: cell-based
Settings: ATCC19434, SP-BIM alone, read-out: MIC Enterococcus faecium ATCC 19434

# example entries with known answers
compound: c1ccc2c(C(c3ncc[nH]3)c3c[nH]c4ccccc34)c[nH]c2c1 [SP-BIM 4, [bis(indol-3-yl)imidazol-2-yl]methane]
system-under-test: Enterococcus faecium ATCC 19434
MIC: 104 µg/mL
//
compound: COc1ccccc1C(c1c[nH]c2ccccc12)c1c[nH]c2ccccc12
system-under-test: Enterococcus faecium ATCC 19434
MIC: > 250 µg/mL
//
compound: Oc1cccc(C(c2c[nH]c3ccccc23)c2c[nH]c3ccccc23)c1
system-under-test: Enterococcus faecium ATCC 19434
MIC: > 250 µg/mL

Quick batch: MIC for everything below.
1. Oc1ccccc1C(c1c[nH]c2ccccc12)c1c[nH]c2ccccc12 [SP-BIM 11, bis(indol-3-yl)-2-hydroxyphenylmethane]
2. c1cc(C(c2c[nH]c3ccccc23)c2c[nH]c3ccccc23)cc(C(c2c[nH]c3ccccc23)c2c[nH]c3ccccc23)c1 [SP-BIM 7, 1,3-bis[bis(indoly-3-yl)methyl]benzene]
3. COc1ccc(C(c2c[nH]c3ccccc23)c2c[nH]c3ccccc23)cc1

Reply:
1: > 250 µg/mL; 2: > 250 µg/mL; 3: > 250 µg/mL

###

Test system: Streptococcus pneumoniae
Experiment: Checkerboard synergy (FICI) of antibiotics with SP-BIM
Type: cell-based
Settings: Streptococcus pneumoniae, 24 h, Streptococcus pneumoniae; antibiotic alone; SP-BIM 13 checkerboard; read-out: MIC antibiotic only
assay-endpoint: MIC (µg/mL)
Numbers only, in µg/mL.

smiles-string: C[C@H]1c2cccc(O)c2C(=O)C2=C(O)[C@]3(O)C(=O)C(C(N)=O)=C(O)[C@@H](N(C)C)[C@@H]3[C@@H](O)[C@@H]21
system-under-test: Streptococcus pneumoniae
MIC [µg/mL]: 16
//
smiles-string: [H]/N=C(/N)N[C@H]1[C@H](O)[C@@H](O)[C@H](O[C@@H]2O[C@@H](C)[C@](O)(C=O)[C@H]2O[C@@H]2O[C@@H](CO)[C@H](O)[C@@H](O)[C@@H]2NC)[C@@H](N/C(N)=N\[H])[C@@H]1O
system-under-test: Streptococcus pneumoniae
MIC [µg/mL]: 32
//
smiles-string: O=C(O)c1cn(C2CC2)c2cc(N3CCNCC3)c(F)cc2c1=O
system-under-test: Streptococcus pneumoniae
MIC [µg/mL]: 2
//
smiles-string: CC1(C)S[C@@H]2[C@H](NC(=O)[C@H](N)c3ccccc3)C(=O)N2[C@H]1C(=O)O
system-under-test: Streptococcus pneumoniae
MIC [µg/mL]: 250

Now for another entry.
Query: // map "COc1cc(Cc2cnc(N)nc2N)cc(OC)c1OC" to recorded MIC (system: Streptococcus pneumoniae)
Reply: 32

###

Test system: Streptococcus pneumoniae
Assay: Checkerboard synergy (FICI) of antibiotics with SP-BIM
Format: cell-based
Conditions: Streptococcus pneumonia (title: Streptococcus pyogenes); antibiotic + SP-BIM 9
assay-endpoint: Σ FIC

Below are 5 molecules. Give each one its Σ FIC.
1. [H]/N=C(/N)N[C@H]1[C@H](O)[C@@H](O)[C@H](O[C@@H]2O[C@@H](C)[C@](O)(C=O)[C@H]2O[C@@H]2O[C@@H](CO)[C@H](O)[C@@H](O)[C@@H]2NC)[C@@H](N/C(N)=N\[H])[C@@H]1O [Streptomycin, streptomycin]
2. CC1=C(C(=O)O)N2C(=O)[C@@H](NC(=O)[C@H](N)c3ccccc3)[C@H]2SC1 [Cephalexin, cefalexin]
3. COc1cc(Cc2cnc(N)nc2N)cc(OC)c1OC [Trimethoprim, trimethoprim]
4. C[C@H]1[C@H](NC(=O)/C(=N\OC(C)(C)C(=O)O)c2csc(N)n2)C(=O)N1S(=O)(=O)O [Aztreonam, aztreonam]
5. CC[C@H]1OC(=O)[C@H](C)[C@@H](O[C@H]2C[C@@](C)(OC)[C@@H](O)[C@H](C)O2)[C@H](C)[C@@H](O[C@@H]2O[C@H](C)C[C@H](N(C)C)[C@H]2O)[C@](C)(O)C[C@@H](C)C(=O)[C@H](C)[C@@H](O)[C@]1(C)O [Erythromycin, erythromycin]

Reply:
["<0.07", "<0.63", "<0.31", "<0.00", "<2.00"]

###

Provide the recorded MIC for the entries that follow.
System: Streptococcus pyogenes ATCC 19615
Experiment: Broth microdilution MIC of SP-BIMs
Format: cell-based
Conditions: ATCC19615, SP-BIM alone, read-out: MIC Streptococcus pyogenes ATCC 19615
One number for each entry, in µg/mL.

molecule: Oc1cc(C(c2c[nH]c3ccccc23)c2c[nH]c3ccccc23)cc(O)c1O [SP-BIM 13]
MIC, µg/mL: 125

Let's switch to this molecule now.
Query: Name the reported MIC value associated with the molecule Oc1cc(Br)ccc1C(c1c[nH]c2ccccc12)c1c[nH]c2ccccc12 [SP-BIM 15]
Reply: 125

###

System: clinical strains of MRSA
Test: Kirby Bauer disc diffusion susceptibility profile
Format: cell-based, Staphylococcus aureus
Conditions: MRSA strain 1594; zones vs EUCAST breakpoints (Table 30)
assay-endpoint: Interpretive standard (resistant/susceptible)

molecule: [H]/N=C(/N)N[C@H]1[C@H](O)[C@@H](O)[C@H](O[C@@H]2O[C@@H](C)[C@](O)(C=O)[C@H]2O[C@@H]2O[C@@H](CO)[C@H](O)[C@@H](O)[C@@H]2NC)[C@@H](N/C(N)=N\[H])[C@@H]1O [Streptomycin, streptomycin]
result: R

molecule: C[C@H]1c2cccc(O)c2C(=O)C2=C(O)[C@]3(O)C(=O)C(C(N)=O)=C(O)[C@@H](N(C)C)[C@@H]3[C@@H](O)[C@@H]21 [Doxycycline, doxycycline]
result: R

molecule: CC[C@H]1OC(=O)[C@H](C)[C@@H](O[C@H]2C[C@@](C)(OC)[C@@H](O)[C@H](C)O2)[C@H](C)[C@@H](O[C@@H]2O[C@H](C)C[C@H](N(C)C)[C@H]2O)[C@](C)(O)C[C@@H](C)C(=O)[C@H](C)[C@@H](O)[C@]1(C)O [Erythromycin, erythromycin]
result: S

molecule: O=C(N[C@H](CO)[C@H](O)c1ccc([N+](=O)[O-])cc1)C(Cl)Cl [Chloramphenicol, chloramphenicol]
result: S

molecule: CC1(C)S[C@@H]2[C@H](NC(=O)[C@H](N)c3ccccc3)C(=O)N2[C@H]1C(=O)O [Ampicillin, ampicillin]
result: R

Field: next molecule
Query: # lookup: Interpretive standard (resistant/susceptible) of NC[C@H]1O[C@H](O[C@H]2[C@H](O)[C@@H](O[C@H]3O[C@H](CO)[C@@H](O)[C@H](N)[C@H]3O)[C@H](N)C[C@@H]2N)[C@H](O)[C@@H](O)[C@@H]1O [Kanamycin, kanamycin]
Reply: R

###

Tested on: Streptococcus pneumoniae
Test: Checkerboard synergy (FICI) of antibiotics with SP-BIM
Format: cell-based
Conditions: Streptococcus pneumoniae; antibiotic in combination with SP-BIM 13
assay-endpoint: MIC in combination, Antibiotic (µg/mL)
Give bare numbers, in µg/mL.

smiles-string: [H]/N=C(/N)N[C@H]1[C@H](O)[C@@H](O)[C@H](O[C@@H]2O[C@@H](C)[C@](O)(C=O)[C@H]2O[C@@H]2O[C@@H](CO)[C@H](O)[C@@H](O)[C@@H]2NC)[C@@H](N/C(N)=N\[H])[C@@H]1O
MIC in combination, Antibiotic / µg/mL: 1

I'm hoping you can list MIC in combination, Antibiotic for every compound here, please.
1. CC1=C(C(=O)O)N2C(=O)[C@@H](NC(=O)[C@H](N)c3ccccc3)[C@H]2SC1
2. O=C(O)c1cn(C2CC2)c2cc(N3CCNCC3)c(F)cc2c1=O
3. C[C@H]1c2cccc(O)c2C(=O)C2=C(O)[C@]3(O)C(=O)C(C(N)=O)=C(O)[C@@H](N(C)C)[C@@H]3[C@@H](O)[C@@H]21
4. CC1(C)S[C@@H]2[C@H](NC(=O)[C@H](N)c3ccccc3)C(=O)N2[C@H]1C(=O)O
5. COc1cc(Cc2cnc(N)nc2N)cc(OC)c1OC
6. C[C@H]1[C@H](NC(=O)/C(=N\OC(C)(C)C(=O)O)c2csc(N)n2)C(=O)N1S(=O)(=O)O

Reply:
2
1
1
2
125
8
